Target: glucosylceramide synthase (Homo sapiens)
Construct: made in house; host or cells: Expi293F cells (transient expression, pcDNA3.3-TOPO vector); microsome fraction used as enzyme source
Assay: Glucosylceramide synthase (GCS) enzyme assay, microsome fraction, C8 glucosylceramide quantified by Rapidfire MS/MS
Assay type: biochemical
Conditions: test compound 10 μM; 1.7 μM UDP-glucose, 3 μM C8 ceramide; room temperature 60 min; read-out: GCS enzyme inhibitory rate at 10 μM (%) (% of control)
PARAMETER: inhibition at 10 µM (%)
Hi! Could you send only the number? It should be in %, unit omitted.

Worked cases, inhibition at 10 µM given:
- COMPOUND: "CC(C)(O)c1cc2c(c(-c3ccccc3OCC(F)F)n1)CN(c1ccc(C(C)(C)C#N)cc1)C2=O"
  ASSAYED TARGET: "glucosylceramide synthase (Homo sapiens)"
  PARAMETER: "inhibition at 10 µM"
  ASSAY VALUE: 100
- COMPOUND: "COc1ccccc1-c1nccc2c1CN(c1ccc(Oc3ccccc3)cc1)C2=O"
  ASSAYED TARGET: "glucosylceramide synthase (Homo sapiens)"
  PARAMETER: "inhibition at 10 µM"
  ASSAY VALUE: 100
- COMPOUND: "N#Cc1ccc(N2Cc3cnn(-c4ccccc4OCC(F)(F)F)c3C2)nc1"
  ASSAYED TARGET: "glucosylceramide synthase (Homo sapiens)"
  PARAMETER: "inhibition at 10 µM"
  ASSAY VALUE: 98
- COMPOUND: "O=C(c1ccc(-c2nccc3c2CN(c2ccc(OC(F)F)nc2)C3=O)c(OCC(F)(F)F)c1)N1CCC1"
  ASSAYED TARGET: "glucosylceramide synthase (Homo sapiens)"
  PARAMETER: "inhibition at 10 µM"
  ASSAY VALUE: 96
- COMPOUND: "O=C1c2ccnc(-c3ccc(F)cc3OCC(F)(F)F)c2CN1c1ccc(C2(O)CCOC2)cn1 (single isomer, unassigned) [Example 300]"
  ASSAYED TARGET: "glucosylceramide synthase (Homo sapiens)"
  PARAMETER: "inhibition at 10 µM"
  ASSAY VALUE: 98
- COMPOUND: "O=C1c2ccnc(-c3ccccc3OCC(F)(F)F)c2CN1c1ccc(C2(O)CC(O)C2)cc1 (stereo not shown)"
  ASSAYED TARGET: "glucosylceramide synthase (Homo sapiens)"
  PARAMETER: "inhibition at 10 µM"
  ASSAY VALUE: 86
- COMPOUND: "O=C1c2ccnc(-c3ccccc3OC(F)F)c2CN1c1ccc(C(F)(F)F)cn1"
  ASSAYED TARGET: "glucosylceramide synthase (Homo sapiens)"
  PARAMETER: "inhibition at 10 µM"
  ASSAY VALUE: 95
- COMPOUND: "CC(C)(O)C(F)(F)c1ccc(N2Cc3c(ccnc3-c3ccccc3OCC(F)F)C2=O)cc1"
  ASSAYED TARGET: "glucosylceramide synthase (Homo sapiens)"
  PARAMETER: "inhibition at 10 µM"
  ASSAY VALUE: 99
- COMPOUND: "N#Cc1ccc(N2Cc3c(ccnc3-c3ccccc3OC(F)F)C2=O)nc1"
  ASSAYED TARGET: "glucosylceramide synthase (Homo sapiens)"
  PARAMETER: "inhibition at 10 µM"
  ASSAY VALUE: 90
- COMPOUND: "O=C1c2ccnc(-c3ccc(F)cc3OCC(F)(F)F)c2CN1c1ccc(OC2CCOCC2)nc1"
  ASSAYED TARGET: "glucosylceramide synthase (Homo sapiens)"
  PARAMETER: "inhibition at 10 µM"
  ASSAY VALUE: 98

Endpoint output: inhibition at 10 µM of `Cc1nn(-c2ccc(F)cc2OCC(F)(F)F)c2c1C(=O)N(c1ccc(F)cc1)C2` . Value? 57

Field entry: `O=C1c2ccnc(-c3ccccc3OCC(F)(F)F)c2CN1c1cnn(CC2(F)COC2)c1` 97

Field entry: `O=C1c2cc(C3CCCCC3)nc(-c3ccc(F)cc3OCC(F)(F)F)c2CN1c1ccc(F)cc1` 95

----------
# inhibition at 10 µM annotations
Biological target: glucosylceramide synthase (Homo sapiens)
Construct: made in house; host or cells: Expi293F cells (transient expression, pcDNA3.3-TOPO vector); microsome fraction used as enzyme source
Assay: Glucosylceramide synthase (GCS) enzyme assay, microsome fraction, C8 glucosylceramide quantified by Rapidfire MS/MS
Type: biochemical
Settings: test compound 10 μM; 1.7 μM UDP-glucose, 3 μM C8 ceramide; room temperature 60 min; read-out: GCS enzyme inhibitory rate at 10 μM (%) (% of control)
Hi! Could you send only the number? It should be in %, unit omitted.

- QUERY SMILES: "CN(C)C(=O)c1ccc(N2Cc3c(ccnc3-c3ccc(F)cc3OCC(F)(F)F)C2=O)cc1"
  UNITS TEXT: "%"
  inhibition at 10 µM: 90
- QUERY SMILES: "CC(C)(O)c1ccc(N2Cc3c(cc(C(C)(C)O)nc3-c3ccccc3OCC(F)F)C2=O)cn1"
  UNITS TEXT: "%"
  inhibition at 10 µM: 97
- QUERY SMILES: "O=C1c2ccnc(-c3ccc(F)cc3OCC(F)(F)F)c2CN1c1ccc(C2(O)CCOCC2)cc1"
  UNITS TEXT: "%"
  inhibition at 10 µM: 99
- QUERY SMILES: "CC(C)(C)[Si](C)(C)OC1(c2ccc(N3Cc4c(ccnc4-c4ccccc4OCC(F)(F)F)C3=O)nc2)CC1"
  UNITS TEXT: "%"
  inhibition at 10 µM: 99
- QUERY SMILES: "N#CC1(c2ccc(N3Cc4c(ccnc4-c4ccccc4OCC(F)(F)F)C3=O)cc2)CC1"
  UNITS TEXT: "%"
  inhibition at 10 µM: 100

Endpoint output: inhibition at 10 µM of `O=C1c2ccnc(-c3ccc(F)cc3OCCOC(F)(F)F)c2CN1c1ccc(OC(F)F)nc1` . Value? 99

Field entry: `O=C1c2ccnc(-c3ccc(F)cc3OC(F)F)c2CN1c1ccc(OC(F)F)cn1` 67

Field entry: `Fc1ccc(N2Cc3cnn(-c4ccccc4OCC(F)(F)F)c3C2)cc1` 98

----------
Molecular target: glucosylceramide synthase (Homo sapiens, UniProt Q16739)
Construct: made in house; host or cells: Expi293F cells (transient expression, pcDNA3.3-TOPO vector); microsome fraction used as enzyme source
Sequence (Q16739 1-394): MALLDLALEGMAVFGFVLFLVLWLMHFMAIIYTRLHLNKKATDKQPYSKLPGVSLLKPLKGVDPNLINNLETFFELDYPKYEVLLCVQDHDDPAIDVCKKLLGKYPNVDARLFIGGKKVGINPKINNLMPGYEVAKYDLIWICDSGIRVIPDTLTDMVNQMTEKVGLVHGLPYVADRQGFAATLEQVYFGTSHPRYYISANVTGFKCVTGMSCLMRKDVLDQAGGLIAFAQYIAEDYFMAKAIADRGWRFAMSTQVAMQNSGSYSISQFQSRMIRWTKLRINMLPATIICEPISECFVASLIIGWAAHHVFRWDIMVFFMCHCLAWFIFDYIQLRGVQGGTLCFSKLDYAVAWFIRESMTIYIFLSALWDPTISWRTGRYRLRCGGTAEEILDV
Assay: Glucosylceramide synthase (GCS) enzyme assay, microsome fraction, C8 glucosylceramide quantified by Rapidfire MS/MS
Format: biochemical
Details: test compound 10 μM; 1.7 μM UDP-glucose, 3 μM C8 ceramide; room temperature 60 min; read-out: GCS enzyme inhibitory rate at 10 μM (%) (% of control)
# inhibition at 10 µM annotations
Hi! Could you send only the number? It should be in %, unit omitted.

- MOLECULE: "O=C1c2ccnc(-c3ccc(F)cc3OCC(F)(F)F)c2CN1c1cnn(CC(F)(F)F)c1"
  UNITS TEXT: "%"
  inhibition at 10 µM: 91
- MOLECULE: "O=C1c2ccnc(-c3ccccc3OCC(F)(F)F)c2CN1c1ccc(C2(O)CC(OCc3ccccc3)C2)cc1 (stereo not shown)"
  UNITS TEXT: "%"
  inhibition at 10 µM: 100
- MOLECULE: "COc1ccccc1-c1nccc2c1CN(c1ccc(F)cc1)C2"
  UNITS TEXT: "%"
  inhibition at 10 µM: 91

Now for another entry.
Endpoint output: inhibition at 10 µM of `O=C1c2ccnc(-c3ccc(F)cc3OCC(F)(F)F)c2CN1c1ccc(F)cn1` . Value? 88

----------
Target: glucosylceramide synthase (Homo sapiens)
Construct: made in house; host or cells: Expi293F cells (transient expression, pcDNA3.3-TOPO vector); microsome fraction used as enzyme source
Sequence (Q16739 1-394): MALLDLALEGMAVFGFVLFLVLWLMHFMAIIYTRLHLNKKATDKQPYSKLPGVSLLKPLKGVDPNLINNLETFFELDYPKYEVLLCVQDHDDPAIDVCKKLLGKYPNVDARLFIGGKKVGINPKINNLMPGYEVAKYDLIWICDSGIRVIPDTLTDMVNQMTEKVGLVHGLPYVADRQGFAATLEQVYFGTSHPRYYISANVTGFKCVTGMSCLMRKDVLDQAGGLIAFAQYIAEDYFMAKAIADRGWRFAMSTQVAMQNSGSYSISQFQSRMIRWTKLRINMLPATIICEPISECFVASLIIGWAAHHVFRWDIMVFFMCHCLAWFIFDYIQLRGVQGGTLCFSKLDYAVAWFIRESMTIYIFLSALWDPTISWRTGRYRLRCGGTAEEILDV
Assay: Glucosylceramide synthase (GCS) enzyme assay, microsome fraction, C8 glucosylceramide quantified by Rapidfire MS/MS
Format: biochemical
Conditions: test compound 10 μM; 1.7 μM UDP-glucose, 3 μM C8 ceramide; room temperature 60 min; read-out: GCS enzyme inhibitory rate at 10 μM (%) (% of control)
PARAMETER: inhibition at 10 µM

Worked cases, inhibition at 10 µM given:
- COMPOUND: "CC(C)(O)c1ccc(N2Cc3c(ncnc3-c3ccc(F)cc3OCC(F)(F)F)C2=O)cc1 [Example 192]"
  inhibition at 10 µM: "88%"
- COMPOUND: "CC(O)(c1ccc(N2Cc3c(ccnc3-c3ccc(F)cc3OCC(F)(F)F)C2=O)cc1)C(F)F (single isomer, unassigned) [Example 311]"
  inhibition at 10 µM: "100%"
- COMPOUND: "O=C1c2ccnc(-c3ccccc3OCC(F)(F)F)c2CN1c1ccc(C2(O)CC(F)(F)C2)nc1 [Example 316]"
  inhibition at 10 µM: "99%"
- COMPOUND: "COc1cc(C(=O)N2CCC2)ccc1-c1nccc2c1CN(c1ccc(OC(F)F)nc1)C2=O [Example 123]"
  inhibition at 10 µM: "85%"
- COMPOUND: "COc1ccccc1-c1nccc2c1CN(c1ccc(F)cn1)C2=O [Example 43]"
  inhibition at 10 µM: "95%"

Now for another entry.
Endpoint output: inhibition at 10 µM of CN1CCN=C(c2ccc(F)cc2OCC(F)(F)F)C2=C1C(=O)N(c1ccc(OCC(F)(F)F)cc1)C2 [Example 179] . Value? 91%
